measured-target: NDM-1 (Klebsiella pneumoniae)
Sequence (C7C422 whole entry, looked up, species assumed): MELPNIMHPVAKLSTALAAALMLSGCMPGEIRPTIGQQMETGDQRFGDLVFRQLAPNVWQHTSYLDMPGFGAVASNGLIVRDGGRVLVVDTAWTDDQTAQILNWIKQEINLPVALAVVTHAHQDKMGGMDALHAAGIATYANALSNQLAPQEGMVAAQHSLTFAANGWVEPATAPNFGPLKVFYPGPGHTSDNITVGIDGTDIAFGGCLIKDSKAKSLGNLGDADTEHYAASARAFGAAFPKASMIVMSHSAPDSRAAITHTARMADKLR
assay-text: biochemical
Format: biochemical
run-conditions: NDM-1 enzyme, CCF2-FA fluorescence assay; read-out: NDM-1 IC50
endpoint-label: pIC50
One number for each entry, as −log10 of the molar value.

NS(=O)(=O)c1c(C(F)(F)F)ccc(-c2cccn3cncc23)c1-c1nnn[nH]1    8.80
Nc1cccn2c(-c3cccc(S(N)(=O)=O)c3-c3nnn[nH]3)cnc12    8.93
NS(=O)(=O)c1c(CCC(F)(F)F)ccc(-c2ccc(C3CCNCC3)cc2)c1-c1nn[nH]n1    8.35
CN(CCO)Cc1ccc(-c2cccc(S(N)(=O)=O)c2-c2nnn[nH]2)cc1    7.82
Nc1nc2ccc(-c3cccc(S(N)(=O)=O)c3-c3nn[nH]n3)cc2[nH]1    8.59
NS(=O)(=O)c1cccc(-c2ccc(OC3CCNCC3)cc2)c1-c1nnn[nH]1    8.29
Cc1nc2ccccc2n1Cc1ccc(-c2cccc(S(N)(=O)=O)c2-c2nnn[nH]2)cc1    7.53

Could you now consider this next compound?
Lookup result for NS(=O)(=O)c1c(C2CC2)ccc(-c2ccnc3ccccc23)c1-c1nn[nH]n1 ; measured pIC50: 8.43

Sourced from patent US9708336B2
